Each entry below carries its reported viability.
experiment: BET inhibitor-based combinations targeting novel dependencies in MECOM-rearranged (r) AML: SET-2 cell line (AID 2202231); settings: SET-2 AML cells viability, CellTiter-Glo luminescence, 48 h; hits give low values, series mostly up to about 46 µM;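 further: plate controls were DMSO treated cells for no effect and wells without cells for full effect; nearly all actives have a fitted effect of over 35% in size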
Inconclusive results are not listed.
Readout Name: viability (%)

In [3]: df
Out[3]:
                               query_smiles  unit_descriptor  result
0          Cn1cc(C[C@@H](N)C(=O)O)c2ccccc21                %     113
1  COCCNc1cc(NC(=O)N2CCCc3cc(CN4CCN(C)CC4=O)c(C=O)nc32)ncc1C#N                %     114
2  CN(Cc1ccccc1)C(=O)c1ccc(S(=O)(=O)Nc2ccccc2)cc1                %     103
3  CN(CCOc1ccc(-c2ccc3c(c2)OCO3)cc1C(C)(C)C)CC(=O)O                %     105
4  CC/C(=C(/c1ccc(/C=C/C(=O)O)cc1)c1ccc2[nH]ncc2c1)c1ccc(F)cc1Cl                %    98.4
5  C[C@H]1CNCCCN1S(=O)(=O)c1cccc2cncc(F)c12                %     113
6  C[C@H]1[C@H](C)CC[C@]2(C(=O)O)CC[C@]3(C)C(=CC[C@@H]4[C@@]5(C)CC[C@H](O)C(C)(C)[C@@H]5CC[C@]43C)[C@H]12                %     102
7                        O=c1oc2cc(O)ccc2s1                %     106
8  Clc1ccc(-c2nc3sccn3c2/C=N/OCc2ccc(Cl)c(Cl)c2)cc1                %     112
9  CCN(C(=O)c1ccccc1OC)c1cc2c(cc1N1CCNC[C@H]1C)n(C)c(=O)n2C                %     119
